# target entity: T1, Human GDF8 homodimer (mature human Growth and Differentiation Factor-8) (human, UniProt O14793 267-375)
# T1 construct: also called hGDF8; myostatin
# T1 sequence: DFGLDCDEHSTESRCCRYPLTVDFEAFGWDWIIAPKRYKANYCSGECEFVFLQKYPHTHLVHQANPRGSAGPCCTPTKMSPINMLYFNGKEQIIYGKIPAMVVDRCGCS
# assay comment: SPR, antibody captured, 25 nM antigen
# Protocol: Equilibrium dissociation constants (KD values) for antigen binding to selected antibodies were determined by surface kinetics using a real-time biosensor surface plasmon resonance assay (BIACORE™ 2000). […] Human GDF8 homodimer, hGDF11 homodimer, or hGDF5 homodimer at 25 nM was injected over the captured antibody surfaces, and antigen-antibody binding and dissociation were monitored in real time at room temperature. […]
readout: T1/2 (h)
Report the figure in h without appending any unit label.

Note T1/2 for the binder shown: 21-E9 (antibody, V domains shown) VH: EVQLVQLGPGLVKPSETLSLTCTVSGGSISNSNYYWGWIRQPPGKGLEWIGTTYYSGTTYYNPSLKSRVTISVDTSKNQFSLKLSSVTAADTAVYYCARDYYDSSGYYYNWFDPWGQGTTVTVSS VL: AIQMTQSPSSLSASVGDRVTITCRASQDIRNDLGWYQQKPGKAPKRLIYAASSLQSGVPSRFSGSGSGTEFSLTLSSLQPEDFATYFCLQHHIYPWTFGQGTKVEIKR
2.58

Note T1/2 for the binder shown: 1H4-5 (antibody, V domains shown) VH: QVQLVESGGDVVQPGRSLRLSCTASGFTFSSYGMHWVRQAPGRGLEWVAVISFDGKNKYYADSVKGRFTVSRDNSKNTLFLQMNSLRAEDTALYYCAKRIAATGYYYFYGLDVWGQGTTVTVSS VL: EIMMTQSPATLSVSPGERGTLSCRASQSVSSNLAWYQQKPGQAPRLLIYGASTRASGIPARFSGSGSGTEFTLTVSSLQSEDFAVYYCQQYNNWPLTFGGGTKVEIK
0.9

Note T1/2 for the binder shown: 22-G10 (antibody, V domains shown) VH: QVHLKESGPTLVKPTQTLTLTCTFSGFSLSTSGVGVGWIRQPPGKALEWLALIYWNDDKRYSPSLKSRLTITKDTSKNQVVLTMTNMDPVDTATYYCTHTSRYNWHYGFLDYWGQGTTVTVSS VL: AIQMTQSPSSLSASVGDRVTITCRASQGISNYLAWFQQKPGKAPKSLIYAASSLQSGVPSKFSGSGSGTDFTLTISSLQPEDFATYYCQQYNSYPLTFGGGTKVEIKR
1.18
